# Test system: HeLa cells
# Assay explanation: Potentiation Factor (PF50): MMS growth inhibition, SRB assay
# Format: cell-based
# Experimental parameters: MMS 0-10 μg/ml, PARP inhibitor at 30 nM, ratio IC50 control / IC50 + inhibitor
Metric name: PF50 (30 nM)
Answer with a number only.

Value of measured PF50 (30 nM) for the entry COc1ccnc(OC2CCN(C(=O)c3cc(Cc4n[nH]c(=O)c5ccccc45)ccc3F)CC2)c1 [Compound 26k] : 26.8

Reported PF50 (30 nM) for O=C(c1cc(Cc2n[nH]c(=O)c3ccccc23)ccn1)N1CCC(OC2CCCC2)CC1 was 2.2

Memo: O=C(c1cc(Cc2n[nH]c(=O)c3ccccc23)ccc1F)N1CCC(OCC2CCCO2)CC1 (centres unmarked) , reported PF50 (30 nM): 2.0

Looking up CC(C)OC1CCN(C(=O)c2cccc(Cc3n[nH]c(=O)c4ccccc34)c2)CC1 , I found its PF50 (30 nM) recorded as 2.1

For this molecule ( COC1CCN(C(=O)c2cc(Cc3n[nH]c(=O)c4ccccc34)ccn2)CC1 ), measured PF50 (30 nM) is 1.2

get_value(item= O=C(c1cccc(Cc2n[nH]c(=O)c3c(F)ccc(F)c23)c1)N1CCC(OCC2CC2)CC1 , readout=PF50 (30 nM)) returns 1.2

// recorded PF50 (30 nM) for CN(C)C(=O)COC1CCN(C(=O)c2cc(Cc3n[nH]c(=O)c4ccccc34)ccc2F)CC1 : 1.7

response.value for O=C(c1cc(Cc2n[nH]c(=O)c3ccccc23)ccc1F)N1CCC(Oc2cnccn2)CC1 [Compound 26d] (field: PF50 (30 nM)) = 4.0

The reported value for CCOC1CCN(C(=O)c2cccc(Cc3n[nH]c(=O)c4ccccc34)c2)CC1 [Compound 47a] in terms of PF50 (30 nM) is 1.8

# PF50 (30 nM) (molecule: CCOC1CCN(C(=O)c2cccc(Cc3n[nH]c(=O)c4cccc(Cl)c34)c2)CC1 [Compound 119b] ) is 1.2

GET /value?item= COC1CCN(C(=O)c2cc(Cc3n[nH]c(=O)c4c(C)n(C)c(C)c34)ccc2F)CC1 &field=PF50 (30 nM) returns 1.0

Documented PF50 (30 nM) of CC(C)COC1CCN(C(=O)c2cc(Cc3n[nH]c(=O)c4ccccc34)ccc2F)CC1 : 2.9

Measured PF50 (30 nM), CC(C)(C)OC1CCN(C(=O)c2cccc(Cc3n[nH]c(=O)c4ccccc34)c2)CC1 : 4.0

PF50 (30 nM) recorded for this molecule, Cc1cccc(OC2CCN(C(=O)c3cc(Cc4n[nH]c(=O)c5ccccc45)ccc3F)CC2)n1 , is 1.4
